tested on: MS2 coat protein; experiment: apparent KD of MS2 coat protein; designed switch direction (-1 OFF switch, 1 ON switch): -1; higher = weaker reporter binding; conditions: input ligand: FMN 200 uM
Please use condition met whenever apparent KD of MS2 coat protein is not below 100 nM, and condition not met whenever it is.

Would you please look over these solved cases?
Qu. # bool: apparent KD of MS2 coat protein of ACUGGAGCAGGAUAUGCAUUCGUGCUUCGGCACGUAAGGUCACAUGAGGAUCACCCAUGUAGAAGGGCUCCAGU [E2/6-D1] (Eterna round: R97, puzzle: Exclusion 2) >= 100 nM
Ans. condition not met

Qu. Can CGAUGAGCGGUGAGGAUAUCGUGUUCGAAAGAACGUGAGAAGGCACAUGAGGAUCACCCAUGUGAUCCUCAUCG [Omei Ex4B A34] (Eterna round: R97, puzzle: Brourd's mod of Exclusion 4) be said to have apparent KD of MS2 coat protein at or above 100 nM?
Ans. condition not met

Qu. API: above_or_equal(metric=apparent KD of MS2 coat protein, cutoff=100 nM) for item AUUAGUAAUAAGGAUAUCACUAGCUUCGGCUAGUGAGAAGGUAUUACAUGAGGAUCACCCAUGUGAUUAAUUAA [E6/5-A1] (Eterna round: R97, puzzle: Exclusion 6)
Ans. condition met

Qu. # bool: apparent KD of MS2 coat protein of AAAUUAGCAAGUAGGUCCGACAUGAGGAUCACCCAUGUAAGCUAAUCUUACGCUGCAUGAGAGUGCGCUCGUCUUAA [Sensor-V1 #19] (Eterna round: R97, puzzle: Sensor, turn-off variant 1) >= 100 nM
Ans. condition met

Qu. For this sequence, is measured apparent KD of MS2 coat protein 100 nM or higher? AUAAAGCAAGCAUGGUCCCACAUGAGGAUCACCCAUGUGUUCGUCUUAUAGGCUGCUGUGGCUUUUGCCUCGUUGGC [LRO Sensor-off var1-09 loose mod of D91 from Mat747] (Eterna round: R97, puzzle: Sensor, turn-off variant 1)
Ans. condition not met

Qu. Threshold query (apparent KD of MS2 coat protein >= 100 nM) on UUUUUAUAUGAAGGAUAUACUUAACAUGAGGAUCACCCAUGUGGUGUUGUGAGUGAGUGAGUUUAGUAGAAGGUCAAUUAGUGU [JMF's solution 102] (Eterna round: R96, puzzle: Exclusion NG 2)
Ans. condition met

Continuing:
Qu. Could you verify whether the entry GUGUACGGAGGAUAUAUAUGGGCAGCAUACGCUGCAGCUUCACAUGAGGAUCACCCAUGUAGAAGGCUGUACAC [Mat - Exclusion 2 - Mod of Hyphema - D100] (Eterna round: R96, puzzle: Exclusion 2) shows apparent KD of MS2 coat protein of no less than 100 nM?
Ans. condition met

Qu. Does apparent KD of MS2 coat protein meet or surpass 100 nM for AAUAAGGGAGGAUAUGCGGAACGGUUUGUUCUCAGUGAGGCACAUGAGGAUCACCCAUGUAGAAGGCCCGGCAA [Orinar] (Eterna round: R96, puzzle: Exclusion 2) ?
Ans. condition not met

Qu. Does AAUACAAGCUAUUGAUCCCACAUGAGGAUCACCCAUGUUCCUGGCCGUGAGGCUAGGUAGACAAUAGCUCGUCUUAU [Sensor-V1 #43] (Eterna round: R97, puzzle: Sensor, turn-off variant 1) have a reported apparent KD of MS2 coat protein of at least 100 nM?
Ans. condition not met

Qu. Check if apparent KD of MS2 coat protein >= 100 nM (inclusive). Item: CCACUGCAUUGCAGUGUCGACAUGAGGAUCACCCAUGUGUCGCAGGCGCCGAGCUUUCCGCUCGUUACGUAUCGACG [Arorin] (Eterna round: R96, puzzle: Sensor v2, turn-off variant)
Ans. condition not met

Qu. Quick check, apparent KD of MS2 coat protein >= 100 nM? ACAUUGGUAGUGAGGAUAUCGGUGUGAUAGAAUGCCGAGAAGGCACAUGAGGAUCACCCAUGUAAGAUUGGGCA [JR_BMEx4_Sub043] (Eterna round: R97, puzzle: Brourd's mod of Exclusion 4)
Ans. condition met

Qu. Quick check: does UUUCAACGGUAGGAUAUCGAGACUACGACUAGCCGAGAAGGGCCGACAUGAGGAUCACCCAUGUGCCUCACCCG [Eternabot (L1) Solution 56] (Eterna round: R97, puzzle: Exclusion 6) have apparent KD of MS2 coat protein greater than or equal to 100 nM?
Ans. condition not met

Qu. Determine whether this sequence has apparent KD of MS2 coat protein no lower than 100 nM: GGAGGAAGAGAGGAUAUGGAGGAGAGGAGAAGACCAGAAGGUUCAACAUGAGGAUCACCCAUGUAUGAUCCUCA [AK-MS2ROC-r4-exclusion6-1.1] (Eterna round: R97, puzzle: Exclusion 6)
Ans. condition met
